Molecular target: GAK kinase (Homo sapiens, UniProt O14976)
Construct: made in house; host or cells: E. coli host derived from the BL21 strain, infected with T7 phage
Sequence (O14976 1-1311): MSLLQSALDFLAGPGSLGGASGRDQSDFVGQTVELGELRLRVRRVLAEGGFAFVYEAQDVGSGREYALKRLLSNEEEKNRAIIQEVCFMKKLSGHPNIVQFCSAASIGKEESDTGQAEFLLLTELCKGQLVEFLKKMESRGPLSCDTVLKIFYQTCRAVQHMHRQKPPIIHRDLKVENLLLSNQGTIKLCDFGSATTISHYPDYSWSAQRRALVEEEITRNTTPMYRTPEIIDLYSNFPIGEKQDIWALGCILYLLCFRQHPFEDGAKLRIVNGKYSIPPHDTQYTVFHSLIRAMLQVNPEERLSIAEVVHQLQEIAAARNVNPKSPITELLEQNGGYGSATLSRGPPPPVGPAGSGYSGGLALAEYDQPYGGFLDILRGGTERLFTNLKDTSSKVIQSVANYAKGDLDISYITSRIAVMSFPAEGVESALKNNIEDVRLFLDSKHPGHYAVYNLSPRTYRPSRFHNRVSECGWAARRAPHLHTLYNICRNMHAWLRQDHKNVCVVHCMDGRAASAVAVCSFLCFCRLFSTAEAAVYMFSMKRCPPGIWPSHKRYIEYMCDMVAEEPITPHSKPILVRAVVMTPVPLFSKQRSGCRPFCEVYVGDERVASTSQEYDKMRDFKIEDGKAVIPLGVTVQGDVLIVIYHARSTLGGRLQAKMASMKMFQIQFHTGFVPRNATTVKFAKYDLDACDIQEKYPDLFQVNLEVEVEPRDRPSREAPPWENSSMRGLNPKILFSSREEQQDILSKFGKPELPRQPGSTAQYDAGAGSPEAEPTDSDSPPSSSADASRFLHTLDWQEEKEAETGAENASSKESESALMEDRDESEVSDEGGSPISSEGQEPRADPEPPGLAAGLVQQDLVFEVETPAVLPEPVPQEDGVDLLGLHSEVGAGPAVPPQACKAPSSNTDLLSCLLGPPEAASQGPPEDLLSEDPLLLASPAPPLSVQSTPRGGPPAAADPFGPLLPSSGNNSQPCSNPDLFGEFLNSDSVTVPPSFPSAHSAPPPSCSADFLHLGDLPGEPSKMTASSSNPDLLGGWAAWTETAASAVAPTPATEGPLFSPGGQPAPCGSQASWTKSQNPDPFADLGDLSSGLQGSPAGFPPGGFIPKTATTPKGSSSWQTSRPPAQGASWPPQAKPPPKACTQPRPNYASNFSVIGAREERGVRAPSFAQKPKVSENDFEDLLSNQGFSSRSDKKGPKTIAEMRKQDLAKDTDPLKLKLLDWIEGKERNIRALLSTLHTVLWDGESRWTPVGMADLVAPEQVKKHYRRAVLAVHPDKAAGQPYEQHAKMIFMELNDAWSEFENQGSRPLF
Experiment: GAK binding assay (T7 phage kinase competition binding)
Settings: single concentration of 10 μM; lower numbers indicate stronger hits; read-out: % Ctrl
property name: remaining binding at 10 µM (%)

[
  {
    "compound": "COc1snc2cc(-c3cccnc3)cnc12",
    "measurement target": "GAK kinase (Homo sapiens, UniProt O14976)",
    "reading": 93
  },
  {
    "compound": "COc1ccc(-c2cnc3c(N4CCCC(O)C4)snc3c2)cc1OC (stereo not drawn)",
    "measurement target": "GAK kinase (Homo sapiens, UniProt O14976)",
    "reading": 0.05
  },
  {
    "compound": "COc1ccc(-c2cnc3csnc3c2)cc1OC",
    "measurement target": "GAK kinase (Homo sapiens, UniProt O14976)",
    "reading": 31
  },
  {
    "compound": "CNC(=O)c1ccc(-c2cnc3c(N4CCOCC4)snc3c2)cc1",
    "measurement target": "GAK kinase (Homo sapiens, UniProt O14976)",
    "reading": 0.05
  },
  {
    "compound": "COc1ccc(-c2cnc3c(-c4ccsc4)snc3c2)cc1OC",
    "measurement target": "GAK kinase (Homo sapiens, UniProt O14976)",
    "reading": 0
  },
  {
    "compound": "COc1snc2cc(-c3ccsc3)cnc12",
    "measurement target": "GAK kinase (Homo sapiens, UniProt O14976)",
    "reading": 22
  }
]

----------
Below is a list of entries, each paired with its recorded pKd value.
Target: GAK kinase (Homo sapiens, UniProt O14976)
Sequence (O14976 1-1311): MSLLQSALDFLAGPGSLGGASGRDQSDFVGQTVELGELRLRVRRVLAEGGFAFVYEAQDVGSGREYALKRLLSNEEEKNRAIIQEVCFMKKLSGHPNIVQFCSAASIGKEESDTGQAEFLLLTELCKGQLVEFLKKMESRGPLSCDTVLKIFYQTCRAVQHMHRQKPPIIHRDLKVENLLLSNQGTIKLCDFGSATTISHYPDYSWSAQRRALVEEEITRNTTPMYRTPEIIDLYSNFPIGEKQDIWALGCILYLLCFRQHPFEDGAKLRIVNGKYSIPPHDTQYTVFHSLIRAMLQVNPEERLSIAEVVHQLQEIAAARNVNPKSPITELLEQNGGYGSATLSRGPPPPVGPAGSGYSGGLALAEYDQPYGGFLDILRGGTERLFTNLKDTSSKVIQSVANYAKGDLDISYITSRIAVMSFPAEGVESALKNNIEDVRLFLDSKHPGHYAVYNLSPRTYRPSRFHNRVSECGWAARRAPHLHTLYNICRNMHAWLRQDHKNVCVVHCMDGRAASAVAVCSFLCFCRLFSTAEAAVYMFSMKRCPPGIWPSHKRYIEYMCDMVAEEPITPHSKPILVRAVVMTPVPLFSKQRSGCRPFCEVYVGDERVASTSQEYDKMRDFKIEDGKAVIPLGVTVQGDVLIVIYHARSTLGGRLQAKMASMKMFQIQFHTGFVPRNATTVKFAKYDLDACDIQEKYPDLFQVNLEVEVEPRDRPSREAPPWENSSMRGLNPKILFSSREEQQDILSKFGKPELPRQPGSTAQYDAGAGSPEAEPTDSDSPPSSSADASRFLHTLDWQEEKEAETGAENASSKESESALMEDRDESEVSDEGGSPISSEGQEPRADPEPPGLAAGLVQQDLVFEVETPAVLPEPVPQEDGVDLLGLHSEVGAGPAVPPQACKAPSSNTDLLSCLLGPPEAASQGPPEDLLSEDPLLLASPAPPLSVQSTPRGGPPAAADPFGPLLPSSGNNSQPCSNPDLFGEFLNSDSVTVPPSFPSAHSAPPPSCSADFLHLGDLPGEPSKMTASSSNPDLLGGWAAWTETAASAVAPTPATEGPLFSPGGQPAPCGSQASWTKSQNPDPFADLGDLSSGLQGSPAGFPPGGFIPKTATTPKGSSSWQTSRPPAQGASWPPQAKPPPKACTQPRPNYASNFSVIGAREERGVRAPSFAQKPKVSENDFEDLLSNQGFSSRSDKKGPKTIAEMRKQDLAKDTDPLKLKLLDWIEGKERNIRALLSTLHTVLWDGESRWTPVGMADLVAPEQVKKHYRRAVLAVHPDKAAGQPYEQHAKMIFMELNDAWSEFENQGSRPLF
Test: GAK binding assay (T7 phage kinase competition binding)
Details: determined for selected compounds with % control <5 at 10 μM
pKd: −log10 of the molar value.
property name: pKd

[
  {
    "molecule": "COc1ccc(-c2cnc3c(N4CCOCC4)snc3c2)cc1 [Example 63]",
    "reading": 6.85
  },
  {
    "molecule": "CNC(=O)c1ccc(-c2cnc3c(N4CCOCC4)snc3c2)cc1 [Example 54]",
    "reading": 7.06
  },
  {
    "molecule": "COc1ccc(-c2cnc3c(-c4ccsc4)snc3c2)cc1OC [Example 84]",
    "reading": 6.85
  },
  {
    "molecule": "COc1ccc(-c2cnc3c(N4CCOCC4)snc3c2)cc1OC(C)=O [Example 62]",
    "reading": 7.09
  },
  {
    "molecule": "COc1ccc(-c2cnc3c(N4CCCC(O)C4)snc3c2)cc1OC (centres unmarked) [Example 68]",
    "reading": 7.16
  }
]
